- Test system: HCI16 (cells of a triple-negative basal-like breast cancer xenograft);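 also: PDX cells carrying CMV promoter-driven luciferase, viability read as total photon flux per second by IVIS imaging following D-luciferin, vehicle control 0.1% DMSO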
- assay-details: cell viability (% of vehicle); higher = less cytotoxic
- experimental-context: 10 µM; 72 h
observed-property: cell viability
Number only, please.

Solved entries:
compound	observed-property	test-result
CO[C@H]1O[C@@H]2O[C@@]3(C)CC[C@H]4[C@H](C)CC[C@@H]([C@H]1C)[C@@]24OO3 [Artemether (SM-224)]	cell viability	123
CCCCNc1cc(C(=O)O)cc(S(N)(=O)=O)c1Oc1ccccc1 [Bumetanide]	cell viability	108
CC(C=CC1=C(C)CCCC1(C)C)=CC=CC(C)=CC(=O)O	cell viability	175
O=C(CS(=O)Cc1ccco1)NCC=CCOc1cc(CN2CCCCC2)ccn1 (stereo not drawn)	cell viability	119
Cc1ncc([N+](=O)[O-])n1CCO	cell viability	133

IN: Reported cell viability, compound CCCOc1ccc(C(=O)OCCN(CC)CC)cc1N.Cl [Proparacaine HCl] : ____
OUT: 109

IN: Could you share which cell viability value was measured for C.CCN1CC(CCN2CCOCC2)C(c2ccccc2)(c2ccccc2)C1=O.O (stereo not drawn) [Doxapram HCl] ?
OUT: 105

IN: GET /values?readout=cell viability&item= "CN1CCN(CCCN2c3ccccc3Sc3ccc(Cl)cc32)CC1"
OUT: 92.1
